# STUDY SYSTEM: T1, CD70 on cells (CHO-CD70, JVM-3, U266, Raji, THP-1, T cells) (human, UniProt P32970 1-193)
# T1 construct: whole, on cells; also called cell-surface CD70
# T1 sequence (looked up): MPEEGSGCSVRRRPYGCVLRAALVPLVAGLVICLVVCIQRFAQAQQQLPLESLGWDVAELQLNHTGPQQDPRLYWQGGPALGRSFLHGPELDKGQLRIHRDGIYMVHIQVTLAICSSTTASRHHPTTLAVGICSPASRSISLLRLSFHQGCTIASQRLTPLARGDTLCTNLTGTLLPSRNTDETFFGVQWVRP
# METHOD NOTES: 1.25 µg/mL scFv on JVM-3 cells
EXPERIMENTAL READOUT: cell binding

binder="59-TC4-VII-F02 (scFv, His-tagged) scFv: QLQLQESGPGLVKPSGTLSLTCAVSGGSISSSNWWSWVRQPPGKGLEWIGEIYHSGSTNYNPSLKSRVTISVDKSKNQFSLKLSSVTAADTAVYYCAGPGPDPNDAFDIWGQGTMVTVSSGGSGGSGGSGGSSSELTQDPAVSVALGQTVRITCQGDSLRSYYASWYQQLPGTAPKLLIYQDSKRPSGIPERFSGSNSGNTATLTISGTQAMDEADYYCQAWDSSTAVFGGGTKLTVL" experimental_readout="cell binding" numeric_result=52100
binder="30-TC1.2-I-C08-1 (scFv, His-tagged) scFv: QMQLVQSGAEVKKPGASVKVSCKASGYTFTSYGISWVRQAPGQGLEWMGWINPNTGGTDYAQKFQGRVTITRDTSITTGYMELSRLRSDDTAVYYCARHYYYGMDVWGQGTTVTVSSGGSGGSGGSGGSDIQLTQSPSSLSASVGDRVTITCQASQDISNYLNWYQQKPGKAPKLLIYDASNLETGVPSRFSGSGSGTDFTFTISSLQPEDIATYYCQQYDNLPLTFGGGTKVEIK" experimental_readout="cell binding" numeric_result=37400
